substrate: PET; assay: Proxy for plastic degradation [Released monomer concentration (HPLC/LC-MS) (MHET)]; conditions: pH 9
Proxy for plastic degradation for assorted proteins

{"protein": "unnamed (protein) MNFPRASRLMQAAVLGGLMAVSAAATAQTNPYARGPNPTAASLEASAGPFTVRSFTVSRPSGYGAGTVYYPTNAGGTVGAIAIVPGYTARQSSIKWWGPRLASHGFVVITIDTNSTLDQPSSRSSQQMAALRQVASLNGTSSSPIYGKVDTARMGVMGWSMGGGGSLISAANNPSLKAAIPQAPWDSSTNFSSVTVPTLIFACENDSIAPVNSSALPIYDSMSRNAKQFLEINGGSHSCANSGNSNQALIGKKGVAWMKRFMDNDTRYSTFACENPNSTRVSDFRTANCS", "unit descriptor": "nM", "Proxy for plastic degradation": 13.4}
{"protein": "unnamed (protein) NPYARGPNPTAASLEASAGPFTVRSFTVSRPSGYGAGTVYYPTNAGGTVGAIAIVPGFTARQSSIKWWGPRLASHGFVVITIDTNSTLDQPSSRSSQQMAALRQVASLNGTSSSPIYGKVDTARMGVMGWSMGGGGSLISAANNPSLKAAAPQAPWDSSTNFSSVTVPTLIFACENDSIAPVNSSALPIYDSMSRNAKQFLEINGGSHSCANSGNSNQALIGKKGVAWMKRFMDNDTRYSTFACENPNSTRVSDFRTANCS", "unit descriptor": "nM", "Proxy for plastic degradation": 0}
{"protein": "unnamed (protein) NPYARGPNPTAASLEASAGPFTVRSFTVSRPSGYGAGTVYYPTNAGGTVGAIAIVPGYTARQSSIKWWGPRLASHGFVVITIDTNSTLDQPSSRSSQQMAALRQVASLNGTSSSPIYGKVDTARMGVMGWSMGGGGSLISAANNPSLKAAAPLAPWDSSTNFSSVTVPTLIFACENDSIAPVNSSALPIYDSMSRNAKQFLEINGGSHSCANSGNSNQALIGKKGVAWMKRFMDNDTRYSTFACENPNSTRVSDFRTANCS", "unit descriptor": "nM", "Proxy for plastic degradation": 8}
{"protein": "unnamed (protein) NPYARGPNPTAASLEASAGPFTVRSFTVSRPSGYGAGTVYYPTNAGGTVGAIAIVPGYTARQSSIKWLGPRLASHGFVVITIDTNSTLDQPSSRSSQQMAALRQVASLNGTSSSPIYGKVDTARMGVMGWSMGGGGSLISAANNPSLKAAAPQAPWDSSTNFSSVTVPTLIFACENDSIAPVNSSALPIYDSMSRNAKQFLEINGGSHSCANSGNSNQALIGKKGVAWMKRFMDNDTRYSTFACENPNSTRVSDFRTANCS", "unit descriptor": "nM", "Proxy for plastic degradation": 0}
{"protein": "unnamed (protein) MNFPRASRLMQAAVLGGLMAVSAAATAQTNPYARGPNPTAASLEASAGPFTVRSFTVSRPSGYGAGTVYYPTNAGGTVGAIAIVPGYTARQSSIKWWGPRLASHGFVVITIDTNSTLDQPSSRSSQQMAALRQVASLNGTSSSPIYGKVDTARMGVMGWSMGGGGSLISAANNPSLKAAAPQAPWDSSTNFSSVTVPTLIFACENDSIAPVASSALPIYDSMSRNAKQFLEINGGSHSCANSGNSNQALIGKKGVAWMKRFMDNDTRYSTFACENPNSTRVSDFRTANCS", "unit descriptor": "nM", "Proxy for plastic degradation": 2}
{"protein": "unnamed (protein) NPYARGPNPTAASLEASAGPFTVRSFTVSRPSGYGAGTVYYPTNAGGTVGAIAIVPGYTARQSSIKWWGPRLASHGFVVITIDTNSTLDQPSSRSSQQMAALRQVASLNGTSSSPIYGKVDTARMGVMGWSMGGGGSLISAANNPSLKAAAPQAPWDSSTNFSSVTVPTLIFACENDSIIPVNSSALPIYDSMSRNAKQFLEINGGSHSCANSGNSNQALIGKKGVAWMKRFMDNDTRYSTFACENPNSTRVSDFRTANCS", "unit descriptor": "nM", "Proxy for plastic degradation": 13}
